Listing: z-score of selected molecules
# ASSAY_COMMENT: JC-1 mitochondrial signal, unstimulated HepG2 cells – cell-based, JC-1 fluorescence, 24 h, 100 nL compound, profiling panel (AID 1167); also: test concentration not given here
# APPLIED_CONDITIONS: HepG2 mitochondrial potential, higher = more signal

MOLECULE | EXPERIMENTAL_RESULT
COCCOC(=O)N1C(=O)[C@@]2(c3cc(C#CCC(C(=O)OC)C(=O)OC)ccc31)[C@H](c1ccc(OCCO)cc1)N1[C@H](c3ccccc3)[C@H](c3ccccc3)OC(=O)[C@H]1[C@@H]2C(=O)NC[C@H](O)c1ccccc1 | 0.177
Cc1ccc([C@H]2C(C(=O)O)=C[C@@H](C(C)C)N2S(=O)(=O)c2ccc(C)cc2)cc1 | -0.713
OCCCc1cc[n+](Cc2cccc(OC(F)(F)F)c2)cc1 | 1.14
COC(=O)[C@@]1(Cc2ccc(F)cc2)[C@H]2c3cc(C(=O)N4CCCC4)n(Cc4ccc(Cl)c(C(F)(F)F)c4)c3C[C@H]2CN1C(=O)c1ccccc1 | 1.09
CCN(CC)c1ccc(N2CC=CC34O[C@@H]5C=CCOC(=O)[C@@H]5[C@H]3C(=O)N(CCCCCO)[C@@H]4C2=O)cc1 (stereo not given in full) | 0.497

molecule O=C1C2C=CC(C(O)CCc3ccccc3)N(Nc3ccccc3)C2C(=O)N1c1ccccc1 (stereo not given) , z-score observed: -2.35

molecule `C=C(/C(=C/C[C@@H](OC(=O)c1ccncc1)c1ccc(CO)o1)c1cc(C(=O)OC)ccc1OC)C(C)C` , z-score observed: 0.654

molecule `O=C(NCCN1CCOCC1)[C@@H]1c2ccccc2C(=O)N(Cc2cc(F)cc(C(F)(F)F)c2)[C@H]1c1ccc(CO)cc1` , z-score observed: 1.97

molecule `COCCCNC(=O)[C@@]1(Cc2ccccc2I)c2ccccc2C(=O)N(Cc2ccccc2)[C@H]1c1ccc(CO)cc1` , z-score observed: 1.71

molecule `C[C@]1(C(=O)NCC(F)(F)F)c2ccccc2C(=O)N(Cc2cc(F)cc(C(F)(F)F)c2)[C@H]1c1ccc(CO)cc1` , z-score observed: 0.951

molecule `CC(C)C(=C=CC[C@H](O)c1ccccc1OCCO)CCO` , z-score observed: -0.926

###

# MEASUREMENT_TARGET: Calmodulin-1 (Homo sapiens) (UniProt P0DP23)
# ASSAY_COMMENT: small molecules binding calmodulin-1 with EGTA – biochemical, small-molecule microarray, Cy5-labelled CALM1, profiling panel (AID 1111);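 also: labelled calmodulin applied in Tris saline Tween buffer holding calcium plus EGTA and DTT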
# APPLIED_CONDITIONS: Cy5-CALM1 binding fluorescence, higher = more signal
OBSERVED_PROPERTY: composite z-score

COMPOUND | MEASUREMENT_TARGET | composite z-score
[N-]=[N+]=NCc1ccccc1[C@@H]1OC(c2ccc(OCCCO)cc2)=N[C@]1(Cc1ccccc1N=[N+]=[N-])C(N)=O | Calmodulin-1 (Homo sapiens) (UniProt P0DP23) | 2.02
OCCCc1cc[n+](Cc2cccc(OC(F)(F)F)c2)cc1 | Calmodulin-1 (Homo sapiens) (UniProt P0DP23) | 0.66
C=CCC(OC(C)=O)[C@@H]1[C@@H](N(Cc2cc3ccccc3o2)C(=O)c2cccc3ccccc23)c2cc(OCCCO)ccc2N1C(=O)Cc1ccc2ccccc2c1 (stereo partly drawn) | Calmodulin-1 (Homo sapiens) (UniProt P0DP23) | 0.191
CCCCCCC#C[Si](O[C@H](c1ccccc1)c1cn([C@H](C)c2ccccc2)nn1)(C(C)C)C(C)C | Calmodulin-1 (Homo sapiens) (UniProt P0DP23) | -0.193
O=c1cccc(-c2ccccc2)o1 | Calmodulin-1 (Homo sapiens) (UniProt P0DP23) | -0.604
C[C@H]1C2[C@H](Cc3ccccc3)NC(=O)[C@]23C(=O)N[C@H](Cc2ccccc2)C(=O)N[C@H](Cc2ccccc2)C(=O)NC/C=C/CCC/C=C/C3[C@@H]2O[C@]12C (stereo partly drawn) | Calmodulin-1 (Homo sapiens) (UniProt P0DP23) | -0.343
COc1ccc([Si](C)(C)[C@H]2[C@H](CC(=O)N3Cc4ccccc4C[C@H]3CO)O[C@@]3(C(=O)N(Cc4cccc(I)c4)c4ccccc43)[C@@H]2C)cc1 | Calmodulin-1 (Homo sapiens) (UniProt P0DP23) | -0.551

The compound Cc1ccc(C(C)CC(O)C2C=CC3C(=O)NC(=O)C3N2Nc2ccccn2)o1 (stereo not drawn) , tested on Calmodulin-1 (Homo sapiens) (UniProt P0DP23), showed composite z-score of -0.409

###

# System: PRMT1 (protein arginine N-methyltransferase 1)
# ASSAY_COMMENT: small molecules binding arginine methyltransferase PRMT1 – biochemical, small-molecule microarray, 635 nm fluorescence, primary screen (AID 1088);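 also: binding of Prmt1 protein to compounds spotted on small-molecule microarray slides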
# APPLIED_CONDITIONS: higher = more signal
Listing: composite z-score of selected compounds

COMPOUND | OBSERVED_PROPERTY | EXPERIMENTAL_RESULT
COc1ccc([Si](C)(C)[C@H]2[C@H](CC(=O)N3CCC[C@H]3CO)O[C@@]3(C(=O)N(c4ccccc4)c4ccccc43)[C@@H]2C)cc1 | composite z-score | 0.258
CN1C(=O)C2C=CC(C(O)C(C)(C)C)N(Nc3ccccc3)C2C1=O (configuration not stated) | composite z-score | -0.316
Cc1ccc(S[C@]2(C(=O)NCCN3CCOCC3)CC(=O)N(C3CCCCC3)[C@@H]2c2ccc(CO)cc2)cc1 | composite z-score | 1.05
CN(C)CCCC[C@@H]1NC(=O)[C@@H]2C[C@H](C(=O)NCc3ccc(F)cc3)[C@H](c3cccc(OCCO)c3)N2C1=O | composite z-score | 1.55
[N-]=[N+]=Nc1ccccc1[C@@H]1OC(c2ccc(OCCCO)cc2)=N[C@]1(CCS(=O)(=O)c1ccccc1)C(=O)N1CCCCC1 | composite z-score | 1.56

compound `COc1ccc(CCNC(=O)[C@@]2(C)c3ccccc3C(=O)N(Cc3ccccc3)[C@H]2c2ccc(CO)cc2)cc1` , composite z-score observed: 1.53

compound `C=CCNC(=O)[C@H]1[C@@H]2C(=O)O[C@@H](c3ccccc3)[C@@H](c3ccccc3)N2[C@@H](c2ccc(OCCO)cc2)[C@]12C(=O)N(C(=O)OCCOC)c1ccc(C#CC3(O)CCCCCC3)cc12` , composite z-score observed: 1.54

compound `O=C(CS)NCCCCCNC(=O)[C@H]1C[C@H]2C(=O)N[C@@H](Cc3ccccc3)C(=O)N2[C@H]1c1cccc(OCCO)c1` , composite z-score observed: 1.52

compound `Cc1ccccc1/C=C/C=O` , composite z-score observed: -1.47

compound `COC(=O)[C@@]1(Cc2ccccc2)[C@H]2c3cc(C(=O)N(C)C)n(Cc4ccccc4)c3C[C@H]2CN1C(=O)c1ccccc1` , composite z-score observed: -0.361

compound O=C1C2C=CC(C(O)c3ccc(-c4ccccc4)s3)N(Nc3ccccc3F)C2C(=O)N1c1ccccc1 (configuration not stated) , composite z-score observed: 1.33

compound `COCCOC(=O)N1C(=O)[C@@]2(c3ccccc31)[C@H](c1ccc(O)cc1)N1[C@H](c3ccccc3)[C@H](c3ccccc3)OC(=O)[C@H]1[C@@H]2C(N)=O` , composite z-score observed: -0.0183

###

Listing: z-score of selected compounds
# ASSAY_COMMENT: compound effects on lung adenocarcinoma cell viability – A549, calcein-AM fluorescence, 48 h, basal, profiling panel (AID 1162); also: test concentration not given here
# APPLIED_CONDITIONS: higher = more signal

Illustrative cases are given below, each with its answer.
COMPOUND | z-score
CCCCCCCCCCC(O)C1C=CC2C(=O)N(c3ccccc3)C(=O)C2N1Nc1ccc([N+](=O)[O-])cc1 (configuration not stated) | -2.28
C/C=C/[C@H](CCn1cc([C@H](O)c2ccccc2)nn1)[Si](C)(C)c1ccc(OC)cc1 | -0.0186

compound `COc1ccc([Si](C)(C)[C@H]2[C@H](CC(=O)N3Cc4ccccc4C[C@H]3CO)O[C@@]3(C(=O)N(Cc4cccc(I)c4)c4ccccc43)[C@@H]2C)cc1` , z-score observed: -0.817

compound `COc1ccc([Si](C)(C)[C@@H]2[C@@H](CCO)O[C@]3(C(=O)N(Cc4ccc(N5C(=O)c6cccc7cccc5c67)cc4)c4ccccc43)[C@H]2C)cc1` , z-score observed: -0.35

compound `COCCCNC(=O)[C@@]1(Cc2ccccc2I)c2ccccc2C(=O)N(Cc2ccccc2)[C@H]1c1ccc(CO)cc1` , z-score observed: 0.954

###

# Test system: Human papillomavirus type 1a E7 protein (residues 1-88)
# ASSAY_COMMENT: HPV1a E7 small-molecule binders, primary screen, biochemical, small-molecule microarray, residues 1-88, 635 nm (AID 1129)
# APPLIED_CONDITIONS: small-molecule microarray binding, fluorescence 635 nm; higher = more signal
Label criterion met when composite z-score is at or above 0.7; anything below gets criterion not met.

Examples with answers:
MOLECULE | ANSWER_LABEL
O=C1c2ccccc2[C@@]2(Cc3ccccc3N(Cc3ccccc3)C2=O)[C@H](c2ccc(CO)cc2)N1Cc1ccccc1C(F)(F)F | criterion not met
CN1C(=O)C2C=CC(C(O)C(c3ccccc3)c3ccccc3)N(Nc3ccccc3)C2C1=O (stereo not given) | criterion met
CO[C@H]1O[C@H](CO)[C@@H](OC(=O)Nc2ccccc2-c2ccccc2)[C@H](OC(=O)Nc2ccccc2-c2ccccc2)[C@H]1OC(=O)Nc1ccccc1-c1ccccc1 | criterion met
CCCCN1CC=CC23O[C@@H]4C=CCCOC(=O)C4[C@H]2C(=O)N(CCCO)[C@@H]3C1=O (stereo not given in full) | criterion not met
C=CC[C@@]1(C(=O)NCCN2CCOCC2)N=C(c2ccc(OCCCO)cc2)O[C@@H]1c1ccccc1CN=[N+]=[N-] | criterion met

In: Does the reported composite z-score for O=C1C2C=CC(C(O)c3ccc(B(O)O)cc3)N(Nc3ccc([N+](=O)[O-])cc3)C2C(=O)N1c1ccccc1 (stereo not given) fall at or above the 0.7 mark?
Out: criterion met

In: Does the reported composite z-score for `CCCC[C@@H]1C[C@H]1[C@@H](NC(=O)c1ccccc1)c1ccc(-c2ccccc2)cc1` fall at or above the 0.7 mark?
Out: criterion met
